# credit: paper PMC3582710

target: hiCE (Homo sapiens); test: hiCE inhibition, o-nitrophenylacetate hydrolysis; type: biochemical
Sequence (O00748 27-559): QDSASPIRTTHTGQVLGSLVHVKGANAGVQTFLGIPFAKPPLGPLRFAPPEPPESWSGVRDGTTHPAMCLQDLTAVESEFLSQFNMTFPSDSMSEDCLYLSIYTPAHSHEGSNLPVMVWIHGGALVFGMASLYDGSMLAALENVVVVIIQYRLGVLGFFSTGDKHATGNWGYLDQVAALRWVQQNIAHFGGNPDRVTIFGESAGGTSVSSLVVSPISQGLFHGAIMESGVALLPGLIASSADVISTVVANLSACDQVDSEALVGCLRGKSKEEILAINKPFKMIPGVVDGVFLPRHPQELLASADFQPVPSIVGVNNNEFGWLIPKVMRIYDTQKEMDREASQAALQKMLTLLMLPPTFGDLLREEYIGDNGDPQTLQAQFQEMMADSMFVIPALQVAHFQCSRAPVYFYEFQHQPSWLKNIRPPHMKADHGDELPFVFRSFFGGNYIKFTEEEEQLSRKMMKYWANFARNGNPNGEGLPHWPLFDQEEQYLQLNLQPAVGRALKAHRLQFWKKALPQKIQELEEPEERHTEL
pIC50: −log10 of the molar value.
Outcome measure: pIC50

{"Compound": "Nc1c2c(nc3ccccc13)CCCC2", "Measured": "< 4.00"}
{"Compound": "c1ccc2nc3ccccc3cc2c1", "Measured": "< 4.00"}
{"Compound": "COc1ccc2nc3cc(Cl)ccc3c(N)c2c1", "Measured": 4.55}
{"Compound": "CCN(C)C(=O)Oc1cccc([C@H](C)N(C)C)c1", "Measured": "< 4.00"}
{"Compound": "CC(C)c1ccc(NC(=O)Oc2ccc3c(c2)[C@]2(C)CCN(CCc4ccccc4)[C@@H]2N3C)cc1", "Measured": 5.25}
{"Compound": "COc1cc2c(cc1OC)C(=O)C(CC1CCN(Cc3ccccc3)CC1)C2 (centres unmarked)", "Measured": "< 4.00"}
{"Compound": "Cc1ccccc1NC(=O)Oc1ccc2c(c1)[C@]1(C)CCN(C)[C@@H]1N2C", "Measured": "< 4.00"}
{"Compound": "COc1ccc2c3c1O[C@H]1C[C@@H](O)C=C[C@@]31CCN(C)C2", "Measured": "< 4.00"}

* * *

molecular target: Human AChE (Homo sapiens, UniProt P22303); assay: AChE inhibition, acetylthiocholine substrate, Ellman's reagent; format: biochemical
Sequence (P22303 32-617 isoform P22303-2 limits assumed): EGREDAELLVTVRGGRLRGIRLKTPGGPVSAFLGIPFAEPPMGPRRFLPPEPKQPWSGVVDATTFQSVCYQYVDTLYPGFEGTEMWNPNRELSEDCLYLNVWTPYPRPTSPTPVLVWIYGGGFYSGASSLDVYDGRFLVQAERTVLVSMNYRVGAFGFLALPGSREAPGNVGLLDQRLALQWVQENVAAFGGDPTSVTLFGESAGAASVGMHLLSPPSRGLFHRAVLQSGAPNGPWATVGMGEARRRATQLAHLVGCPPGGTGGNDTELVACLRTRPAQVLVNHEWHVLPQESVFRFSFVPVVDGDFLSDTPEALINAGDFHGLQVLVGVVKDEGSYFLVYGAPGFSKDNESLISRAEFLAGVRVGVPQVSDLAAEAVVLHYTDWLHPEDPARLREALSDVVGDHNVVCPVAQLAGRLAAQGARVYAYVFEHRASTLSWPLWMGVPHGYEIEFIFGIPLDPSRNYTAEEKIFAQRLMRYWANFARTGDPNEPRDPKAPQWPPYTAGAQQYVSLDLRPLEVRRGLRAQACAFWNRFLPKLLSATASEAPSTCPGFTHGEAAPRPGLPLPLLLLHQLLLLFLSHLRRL
Items are presented alongside their recorded IC50.

{"Compound": "COc1ccc2nc3cc(Cl)ccc3c(N)c2c1 [ACMA, 9-amino-6-chloro-2-methoxyacridine]", "Unit": "nM", "IC50": 2000}
{"Compound": "c1ccc2nc3ccccc3cc2c1 [Acridine, acridine]", "Unit": "nM", "IC50": 252000}
{"Compound": "Cc1ccccc1NC(=O)Oc1ccc2c(c1)[C@]1(C)CCN(C)[C@@H]1N2C [Tolserine, tolserine]", "Unit": "nM", "IC50": 1400}
{"Compound": "CC(C)c1ccc(NC(=O)Oc2ccc3c(c2)[C@]2(C)CCN(CCc4ccccc4)[C@@H]2N3C)cc1 [Phenethylcymserine, phenethylcymserine]", "Unit": "nM", "IC50": 1000}

* * *

Molecular target: hCE1 (Homo sapiens, UniProt P23141)
Sequence (P23141 18-567): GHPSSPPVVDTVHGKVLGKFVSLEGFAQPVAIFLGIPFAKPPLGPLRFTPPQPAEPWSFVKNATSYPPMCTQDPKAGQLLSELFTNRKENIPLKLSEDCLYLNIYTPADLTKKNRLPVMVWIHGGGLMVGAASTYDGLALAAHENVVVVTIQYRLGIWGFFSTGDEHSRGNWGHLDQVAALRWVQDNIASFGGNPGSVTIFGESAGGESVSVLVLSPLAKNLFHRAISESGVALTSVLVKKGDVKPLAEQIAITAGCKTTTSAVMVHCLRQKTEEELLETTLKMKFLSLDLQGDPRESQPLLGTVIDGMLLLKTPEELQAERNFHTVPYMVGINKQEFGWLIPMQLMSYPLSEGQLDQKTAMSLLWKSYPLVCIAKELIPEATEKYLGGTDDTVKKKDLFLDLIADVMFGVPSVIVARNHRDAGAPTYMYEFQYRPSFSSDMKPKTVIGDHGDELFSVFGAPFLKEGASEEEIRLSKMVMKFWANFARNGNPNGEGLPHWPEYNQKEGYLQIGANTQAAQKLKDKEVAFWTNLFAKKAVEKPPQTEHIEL
Assay: hCE1 inhibition, o-nitrophenylacetate hydrolysis
Assay type: biochemical
Settings: read-out: IC50 hCE1; substrate o-nitrophenylacetate

{"Molecule": "c1ccc2c(NCCCCCCCNc3c4c(nc5ccccc35)CCCC4)c3c(nc2c1)CCCC3 [Bis(7)-tacrine]", "IC50": "40.5 µM"}
